The entries below are paired with their reported CLint scaled at 0.5 μM.
# Measurement Protocol: Metabolic stability: unbound intrinsic clearance in liver microsomes
# Format: in vitro ADME
# Test Conditions: rat; liver microsomes 0.25 mg protein/mL, 0.5 μM compound, pH 7.4, 37° C.; Cl int unbound=Cl int/fu mic; compounds used as acid addition salts; read-out: Cl int, mic unb. (r) (unbound intrinsic clearance)

Molecule: COc1cc(O[C@H]2CC[C@H](F)CC2)c(F)cc1CNC(=O)[C@@H]1CCCN1
CLint scaled at 0.5 μM: < 500 mL/min/kg
//
Molecule: COc1cc(OC(C)C(F)(F)C(F)F)c(F)cc1CNC(=O)[C@@H]1CCCN1 (some centres unmarked)
CLint scaled at 0.5 μM: < 500 mL/min/kg
//
Molecule: COc1cc(OCCCC(F)(F)F)c(F)cc1CNC(=O)[C@@H]1CCCN1
CLint scaled at 0.5 μM: < 500 mL/min/kg
//
Molecule: COc1cc(OCc2ccc(F)cc2)c(F)cc1CNC(=O)[C@@H]1CCCN1
CLint scaled at 0.5 μM: 1330 to 4170 mL/min/kg
//
Molecule: COc1cc(OCC2CC2(F)F)c(F)cc1CNC(=O)[C@@H]1CCCN1 (some centres unmarked)
CLint scaled at 0.5 μM: < 500 mL/min/kg
//
Molecule: COc1cc(OCc2cc(F)cc(F)c2)c(F)cc1CNC(=O)[C@@H]1CCCN1
CLint scaled at 0.5 μM: 1330 to 4170 mL/min/kg
//
Molecule: COc1cc(OC2CC(F)(F)C2)c(F)cc1CNC(=O)[C@@H]1CCCN1C
CLint scaled at 0.5 μM: 500 to 1330 mL/min/kg
//
Molecule: [2H]C1([2H])NC([2H])(C(=O)NCc2cc(F)c(OC3CCC(C(F)(F)F)CC3)cc2OC)C([2H])([2H])C1([2H])[2H] (centres unmarked)
CLint scaled at 0.5 μM: < 500 mL/min/kg

FYI, the data here is from patent US20200039930A1.
